Consider the following sequences and their measured Binding of serum 37 to linear peptides of protein M of SARS-CoV Urbani readings.
# Test system: antibodies in sera from SARS patients (sera 1a, 1b, 2, 6, 37, 62, London, SARS-yellow, SARS-green)
# Assay type: binding, human
# Parameters: unit not given here
EXPERIMENTAL ENDPOINT: Binding of serum 37 to linear peptides of protein M of SARS-CoV Urbani

[
  {
    "SEQUENCE RECORD": "FARTRSMWSFNPETN",
    "RESULT": 0.9
  },
  {
    "SEQUENCE RECORD": "FVLAAVYRINWVTGG",
    "RESULT": 0.8
  },
  {
    "SEQUENCE RECORD": "TRPLMESELVIGAVI",
    "RESULT": 0.7
  },
  {
    "SEQUENCE RECORD": "NVPLRGTIVTRPLME",
    "RESULT": 0.7
  },
  {
    "SEQUENCE RECORD": "RNRFLYIIKLVFLWL",
    "RESULT": 0.4
  },
  {
    "SEQUENCE RECORD": "NRNRFLYIIKLVFLW",
    "RESULT": 0.7
  },
  {
    "SEQUENCE RECORD": "KEITVATSRTLSYYK",
    "RESULT": 0.5
  }
]

---

Consider the following sequences and their measured Binding of Control serum Blood-bank to linear peptides readings.
# System: control sera (pooled serum of ten healthy LUMC hospital workers; commercial negative donor pooled serum from the Dutch bloodbank)
# Format: binding, human
EXPERIMENTAL ENDPOINT: Binding of Control serum Blood-bank to linear peptides

[
  {
    "SEQUENCE RECORD": "MLHSSSLTSLLKTHR",
    "NUMERIC READOUT": 0.5
  },
  {
    "SEQUENCE RECORD": "DANYFVCWHTHNYDY",
    "NUMERIC READOUT": 0.8
  },
  {
    "SEQUENCE RECORD": "SCELYHYQECVRGTT",
    "NUMERIC READOUT": 0.5
  },
  {
    "SEQUENCE RECORD": "DLIRQGTDYKHWPQI",
    "NUMERIC READOUT": 0.6
  },
  {
    "SEQUENCE RECORD": "LYDANYFVCWHTHNY",
    "NUMERIC READOUT": 0.8
  },
  {
    "SEQUENCE RECORD": "SGPDDQIGYYRRATR",
    "NUMERIC READOUT": 0.8
  },
  {
    "SEQUENCE RECORD": "LGSITAQPVKIDNAS",
    "NUMERIC READOUT": 0.4
  }
]

---

# Tested on: antibodies in sera from SARS patients (sera 1a, 1b, 2, 6, 37, 62, London, SARS-yellow, SARS-green)
# Assay type: binding, human
Note to self: use Condition met only for Binding of serum SARS-green to linear peptides of protein N of SARS-CoV Urbani readings below 0.3; a reading exactly at 0.3 still gets Condition not met.

[
  {
    "SEQUENCE RECORD": "NNQNGGRNGARPKQR",
    "LABEL": "Condition not met"
  },
  {
    "SEQUENCE RECORD": "KEGIVWVATEGALNT",
    "LABEL": "Condition not met"
  },
  {
    "SEQUENCE RECORD": "QSNQRSAPRITFGGP",
    "LABEL": "Condition not met"
  },
  {
    "SEQUENCE RECORD": "KMKELSPRWYFYYLG",
    "LABEL": "Condition met"
  },
  {
    "SEQUENCE RECORD": "VWVATEGALNTPKDH",
    "LABEL": "Condition not met"
  },
  {
    "SEQUENCE RECORD": "NGGRNGARPKQRRPQ",
    "LABEL": "Condition not met"
  },
  {
    "SEQUENCE RECORD": "NPNNNAATVLQLPQG",
    "LABEL": "Condition not met"
  },
  {
    "SEQUENCE RECORD": "QKKQPTVTLLPAADM",
    "LABEL": "Condition not met"
  },
  {
    "SEQUENCE RECORD": "EGIVWVATEGALNTP",
    "LABEL": "Condition not met"
  },
  {
    "SEQUENCE RECORD": "VPINTNSGPDDQIGY",
    "LABEL": "Condition not met"
  },
  {
    "SEQUENCE RECORD": "QIAQFAPSASAFFGM",
    "LABEL": "Condition not met"
  },
  {
    "SEQUENCE RECORD": "HIDAYKTFPPTEPKK",
    "LABEL": "Condition met"
  },
  {
    "SEQUENCE RECORD": "MKELSPRWYFYYLGT",
    "LABEL": "Condition met"
  },
  {
    "SEQUENCE RECORD": "QPLPQRQKKQPTVTL",
    "LABEL": "Condition met"
  },
  {
    "SEQUENCE RECORD": "GMSRIGMEVTPSGTW",
    "LABEL": "Condition not met"
  },
  {
    "SEQUENCE RECORD": "GGPTDSTDNNQNGGR",
    "LABEL": "Condition not met"
  },
  {
    "SEQUENCE RECORD": "FSRQLQNSMSGASAD",
    "LABEL": "Condition not met"
  },
  {
    "SEQUENCE RECORD": "ALTQHGKEELRFPRG",
    "LABEL": "Condition not met"
  },
  {
    "SEQUENCE RECORD": "GTDYKHWPQIAQFAP",
    "LABEL": "Condition not met"
  }
]

---

# Test system: control sera (pooled serum of ten healthy LUMC hospital workers; commercial negative donor pooled serum from the Dutch bloodbank)
# Assay type: binding, human
# Parameters: unit not given here
Note to self: use Criterion met only for Binding of Control Serum Blood-Bank to Looped peptides readings below 0.5; a reading exactly at 0.5 still gets Criterion not met.

[
  {
    "SEQUENCE RECORD": "TYQLRARSVSPKLFI",
    "LABEL": "Criterion not met"
  },
  {
    "SEQUENCE RECORD": "SVTDTIVVTEGDGIS",
    "LABEL": "Criterion met"
  },
  {
    "SEQUENCE RECORD": "SPRWYFYYLGTGPEA",
    "LABEL": "Criterion not met"
  },
  {
    "SEQUENCE RECORD": "LLKEPCPSGTYEGNS",
    "LABEL": "Criterion not met"
  },
  {
    "SEQUENCE RECORD": "LLLLDRLNQLESKVS",
    "LABEL": "Criterion met"
  },
  {
    "SEQUENCE RECORD": "RWHTMVQTCTPNVTI",
    "LABEL": "Criterion not met"
  },
  {
    "SEQUENCE RECORD": "NPAMDPIYDEPTTTT",
    "LABEL": "Criterion met"
  },
  {
    "SEQUENCE RECORD": "YQLESTQITTDTGIE",
    "LABEL": "Criterion met"
  }
]

---

# Tested on: antibodies in sera from SARS patients (sera 1a, 1b, 2, 6, 37, 62, London, SARS-yellow, SARS-green)
# Type: binding, human
# Design: unit not given here
EXPERIMENTAL ENDPOINT: Binding of serum SARS-green to looped/cyclic peptides of protein N of SARS-CoV Urbani

[
  {
    "SEQUENCE RECORD": "RIGMEVTPSGTWLTY",
    "NUMERIC READOUT": 0.5
  },
  {
    "SEQUENCE RECORD": "ALNTPKDHIGTRNPN",
    "NUMERIC READOUT": 0.5
  },
  {
    "SEQUENCE RECORD": "GANKEGIVWVATEGA",
    "NUMERIC READOUT": 0.2
  },
  {
    "SEQUENCE RECORD": "LPYGANKEGIVWVAT",
    "NUMERIC READOUT": 0.4
  },
  {
    "SEQUENCE RECORD": "KKPRQKRTATKQYNV",
    "NUMERIC READOUT": 0.1
  },
  {
    "SEQUENCE RECORD": "TKKSAAEASKKPRQK",
    "NUMERIC READOUT": 0.0
  },
  {
    "SEQUENCE RECORD": "WLTYHGAIKLDDKDP",
    "NUMERIC READOUT": 0.0
  },
  {
    "SEQUENCE RECORD": "KKDKKKKTDEAQPLP",
    "NUMERIC READOUT": 0.1
  },
  {
    "SEQUENCE RECORD": "QHGKEELRFPRGQGV",
    "NUMERIC READOUT": 0.4
  },
  {
    "SEQUENCE RECORD": "HGAIKLDDKDPQFKD",
    "NUMERIC READOUT": 0.3
  },
  {
    "SEQUENCE RECORD": "GAIKLDDKDPQFKDN",
    "NUMERIC READOUT": 0.8
  },
  {
    "SEQUENCE RECORD": "WPQIAQFAPSASAFF",
    "NUMERIC READOUT": 0.5
  },
  {
    "SEQUENCE RECORD": "YRRATRRVRGGDGKM",
    "NUMERIC READOUT": 0.2
  },
  {
    "SEQUENCE RECORD": "KQRRPQGLPNNTASW",
    "NUMERIC READOUT": 0.3
  },
  {
    "SEQUENCE RECORD": "TFGGPTDSTDNNQNG",
    "NUMERIC READOUT": 0.5
  },
  {
    "SEQUENCE RECORD": "GRNGARPKQRRPQGL",
    "NUMERIC READOUT": 0.2
  },
  {
    "SEQUENCE RECORD": "PDDQIGYYRRATRRV",
    "NUMERIC READOUT": 0.8
  },
  {
    "SEQUENCE RECORD": "GKEELRFPRGQGVPI",
    "NUMERIC READOUT": 0.9
  },
  {
    "SEQUENCE RECORD": "SKVSGKGQQQQGQTV",
    "NUMERIC READOUT": 0.5
  },
  {
    "SEQUENCE RECORD": "QLESKVSGKGQQQQG",
    "NUMERIC READOUT": 0.7
  },
  {
    "SEQUENCE RECORD": "SGPDDQIGYYRRATR",
    "NUMERIC READOUT": 0.5
  },
  {
    "SEQUENCE RECORD": "GGRNGARPKQRRPQG",
    "NUMERIC READOUT": 0.2
  },
  {
    "SEQUENCE RECORD": "DQIGYYRRATRRVRG",
    "NUMERIC READOUT": 0.6
  },
  {
    "SEQUENCE RECORD": "SWFTALTQHGKEELR",
    "NUMERIC READOUT": 0.1
  },
  {
    "SEQUENCE RECORD": "GARPKQRRPQGLPNN",
    "NUMERIC READOUT": 0.4
  },
  {
    "SEQUENCE RECORD": "DNVILLNKHIDAYKT",
    "NUMERIC READOUT": 0.3
  },
  {
    "SEQUENCE RECORD": "TNSGPDDQIGYYRRA",
    "NUMERIC READOUT": 0.6
  }
]
